Taken from patent US20260125400A1.

# target system: TYK2 (Homo sapiens, UniProt P29597)
# Construct: Degradation of TYK2 in cells was quantitatively measured using Meso Scale Discovery (MSD) technology; endogenous in cells; host or cells: OCI-LY10
# Sequence (P29597 whole entry): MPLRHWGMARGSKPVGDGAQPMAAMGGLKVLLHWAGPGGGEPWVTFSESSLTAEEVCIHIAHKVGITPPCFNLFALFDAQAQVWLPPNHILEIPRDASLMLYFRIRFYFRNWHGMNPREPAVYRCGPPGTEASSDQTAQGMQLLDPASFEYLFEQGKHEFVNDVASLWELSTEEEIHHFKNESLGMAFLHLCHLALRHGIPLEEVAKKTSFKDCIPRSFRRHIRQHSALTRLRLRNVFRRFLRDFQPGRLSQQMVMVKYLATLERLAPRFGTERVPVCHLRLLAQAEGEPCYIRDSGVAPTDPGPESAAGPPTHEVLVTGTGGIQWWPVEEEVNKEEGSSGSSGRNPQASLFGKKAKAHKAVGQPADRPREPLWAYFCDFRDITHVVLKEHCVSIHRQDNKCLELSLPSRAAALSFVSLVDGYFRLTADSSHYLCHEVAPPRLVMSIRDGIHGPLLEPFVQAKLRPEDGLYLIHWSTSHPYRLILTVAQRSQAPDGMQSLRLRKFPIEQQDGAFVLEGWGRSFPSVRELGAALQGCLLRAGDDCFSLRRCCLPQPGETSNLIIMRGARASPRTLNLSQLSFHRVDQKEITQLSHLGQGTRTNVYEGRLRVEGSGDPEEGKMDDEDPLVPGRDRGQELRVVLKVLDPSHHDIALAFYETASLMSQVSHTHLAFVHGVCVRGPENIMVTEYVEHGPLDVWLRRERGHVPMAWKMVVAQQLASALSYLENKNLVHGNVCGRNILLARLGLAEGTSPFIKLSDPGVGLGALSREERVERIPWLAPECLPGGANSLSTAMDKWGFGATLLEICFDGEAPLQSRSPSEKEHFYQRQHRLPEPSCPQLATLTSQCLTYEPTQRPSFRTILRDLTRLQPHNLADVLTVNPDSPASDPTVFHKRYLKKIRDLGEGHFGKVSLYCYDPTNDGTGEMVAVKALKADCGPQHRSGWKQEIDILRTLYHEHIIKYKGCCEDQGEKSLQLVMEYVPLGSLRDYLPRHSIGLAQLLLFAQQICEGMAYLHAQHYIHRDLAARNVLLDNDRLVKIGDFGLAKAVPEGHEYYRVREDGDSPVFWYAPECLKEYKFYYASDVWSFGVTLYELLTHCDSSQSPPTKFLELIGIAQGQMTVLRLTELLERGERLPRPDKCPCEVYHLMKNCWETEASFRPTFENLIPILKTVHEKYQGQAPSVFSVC
# assay comment: TYK2 MSD degradation in OCI-LY10 cells
# Assay type: cell-based
# test settings: TYK2 degradation in OCI-LY10 cells, 4 to 24 hours incubation, read-out: TYK2 MSD OCI-LY10 Rel-DC50
Below, each entry is listed alongside its reported DC50.
property label: DC50

INSERT INTO measurements (molecule, property_label, recorded_result) VALUES
  ('CNc1cc(N2CCc3c(CN4CCC(N5CCC6(CCN(Cc7ccc(Cl)c(N8CCC(=O)NC8=O)c7)CC6)CC5)C(F)(F)C4)cccc32)nn2c(C(=O)N[C@@H]3C[C@@H]3F)cnc12 (some centres unmarked)', 'DC50', '< 10 nM'),
  ('CNc1cc(N2CCc3c(CN4CCN(C5CCC6(CC5)CCN(C(=O)c5ccc(Cl)c(N7CCC(=O)NC7=O)c5)CC6)CC4)cccc32)nn2c(C(=O)N[C@@H]3C[C@@H]3F)cnc12', 'DC50', '< 1 nM'),
  ('CNc1cc(N2CCc3c(-c4ncc(CN5CC6(CCN(C(=O)c7cc(N8CCC(=O)NC8=O)c(C)cc7F)CC6(F)F)C5)cc4F)cccc32)nn2c(C(=O)NC3CCC3OC)cnc12 (centres unmarked)', 'DC50', '< 1 nM'),
  ('CNc1cc(N2CCc3c(CN4CCC(N5CCC6(CCN(c7ccc8c(c7)n(C)c(=O)n8C7CCC(=O)NC7=O)CC6)CC5)C(F)(F)C4)cccc32)nn2c(C(=O)NC3CC3)cnc12 (centres unmarked)', 'DC50', '< 10 nM'),
  ('CNc1cc(N2CCc3c(-c4ccc(N5CCC6(CCN(C(=O)c7ccc(N8CCC(=O)NC8=O)c(Cl)c7)CC6)CC5)cn4)cccc32)nn2c(C(=O)N[C@@H]3C[C@@H]3F)cnc12', 'DC50', '10 to 100 nM');

----------
# target system: TYK2 (Homo sapiens, UniProt P29597)
# Construct: Degradation of TYK2 in cells was quantitatively measured using Meso Scale Discovery (MSD) technology; endogenous in cells; host or cells: OCI-LY10
# assay comment: TYK2 MSD degradation in OCI-LY10 cells
# Type: cell-based
# test settings: OCI-LY10 cells, 4 to 24 hours incubation
property label: TYK2 MSD OCI-LY10 Dmax %

INSERT INTO results (compound, recorded_result) VALUES
  ('CNc1cc(N2CCc3c(-c4ccc(CN5CCC6(CCN(C(=O)c7cc(F)c(Cl)c(N8CCC(=O)NC8=O)c7)CC6)C(F)(F)C5)cn4)cccc32)nn2c(C(=O)N[C@@H]3C[C@@H]3F)cnc12', 'B (B (90 to >75%))'),
  ('CNc1cc(N2CCc3c(CN4CCC(CCN5CCN(C(=O)c6ccc(Cl)c(N7CCC(=O)NC7=O)c6)CC5)CC4)cccc32)nn2c(C(=O)N[C@@H]3C[C@@H]3F)cnc12', 'C (C (75 to 50%))'),
  ('CNc1cc(N2CCc3c2ccc(F)c3-c2ccc(CN3CCC4(CCN(C(=O)c5cc(C)c(Cl)c(N6CCC(=O)NC6=O)c5)CC4)C(F)(F)C3)cn2)nn2c(C(=O)N[C@@H]3C[C@@H]3F)cnc12', 'C (C (75 to 50%))'),
  ('CNc1cc(N2CCc3c(CN4CCC(N5CC(C6CCN(C(=O)c7ccc(Cl)c(N8CCC(=O)NC8=O)c7)CC6)C5)C(F)(F)C4)cccc32)nn2c(C(=O)N[C@@H]3C[C@@H]3F)cnc12 (some centres unmarked)', 'A (A (>90%))'),
  ('CNc1cc(N2CCc3c(-c4ccc(CN5CCC6(CCN(C(=O)c7cc(F)c(C)c(N8CCC(=O)NC8=O)c7)CC6)C(F)(F)C5)cn4)cccc32)nn2c(C(=O)N[C@@H]3C[C@@H]3F)cnc12', 'A (A (>90%))'),
  ('CNc1cc(N2CCc3c(CN4CCC(N5CC(CC6CCN(C(=O)c7ccc(Cl)c(N8CCC(=O)NC8=O)c7)CC6)C5)C(F)(F)C4)cccc32)nn2c(C(=O)N[C@@H]3C[C@@H]3F)cnc12 (some centres unmarked)', 'A (A (>90%))'),
  ('CNc1cc(N2CCc3c(-c4ccc(CN5CC6(CCC(N(C)c7ccc(Cl)c(N8CCC(=O)NC8=O)c7)CC6)C5)cn4)cccc32)nn2c(C(=O)N[C@@H]3CC[C@H]3OC)cnc12', 'B (B (90 to >75%))'),
  ('CNc1cc(-c2cn(CC3CCN(CCC4CCN(C(=O)c5ccc(Cl)c(N6CCC(=O)NC6=O)c5)CC4)CC3)c3ccccc23)nn2c(C(=O)N[C@@H]3C[C@@H]3F)cnc12', 'B (B (90 to >75%))'),
  ('CNc1cc(N2CCc3c(-c4ccc(CC5CCC6(CC5)CCN(C(=O)c5ccc(Cl)c(N7CCC(=O)NC7=O)c5)CC6)cn4)cccc32)nn2c(C(=O)N[C@@H]3C[C@@H]3F)cnc12', 'B (B (90 to >75%))'),
  ('CNc1cc(N2CCc3c(-c4ccc(CN5CC6(CCC(COc7ccc(C8CCC(=O)NC8=O)c(Cl)c7)CC6)C5)cn4)cccc32)nn2c(C(=O)N[C@@H]3C[C@@H]3F)cnc12 (some centres unmarked)', 'D (D (<50%))'),
  ('CNc1cc(-c2cn(C3CN(C4CCN(C(=O)c5ccc(Cl)c(N6CCC(=O)NC6=O)c5)CC4)C3)c3ccccc23)nn2c(C(=O)N[C@@H]3C[C@@H]3F)cnc12', 'D (D (<50%))'),
  ('CNc1cc(N2CCc3c(CN4CCC(N5CC(CN6CCN(c7ccc8c(c7)n(C)c(=O)n8C7CCC(=O)NC7=O)CC6)C5)C(F)(F)C4)cccc32)nn2c(C(=O)N[C@@H]3C[C@@H]3F)cnc12 (some centres unmarked)', 'B (B (90 to >75%))'),
  ('CNc1cc(N2CCc3c(-c4ccc(N5CCN(CC6CCN(c7ccc(Cl)c(C8CCC(=O)NC8=O)c7)CC6)CC5)cn4)cccc32)nn2c(C(=O)NC3CC3F)cnc12 (mixture of isomers)', 'C (C (75 to 50%))'),
  ('CNc1cc(N2CCc3c(N4CC(CN5CCC(N6CCN(C(=O)c7ccc(Cl)c(N8CCC(=O)NC8=O)c7)CC6)C(F)(F)C5)C4)cccc32)nn2c(C(=O)N[C@@H]3C[C@@H]3F)cnc12 (some centres unmarked)', 'D (D (<50%))'),
  ('CNc1cc(N2CCc3c(-c4ncc(CN5CCC6(CCN(C(=O)c7cc(C)c(Cl)c(N8CCC(=O)NC8=O)c7)CC6)C(F)(F)C5)cc4Cl)cccc32)nn2c(C(=O)N[C@@H]3C[C@@H]3F)cnc12', 'B (B (90 to >75%))'),
  ('CNc1cc(N2CCc3c(CN4CCC(N5CCC(N(C)c6ccc(Cl)c(N7CCC(=O)NC7=O)c6)CC5)C(F)(F)C4)cccc32)nn2c(C(=O)N[C@@H]3C[C@@H]3F)cnc12 (some centres unmarked)', 'B (B (90 to >75%))'),
  ('CNc1cc(N2CCc3c(C#CCN4CCC(N5CCC6(CCN(C(=O)c7ccc(Cl)c(N8CCC(=O)NC8=O)c7)CC6)CC5)C(F)(F)C4)cccc32)nn2c(C(=O)N[C@@H]3C[C@@H]3F)cnc12 (some centres unmarked)', 'B (B (90 to >75%))'),
  ('CNc1cc(N2CCc3c(N4CC(CN5CCC6(CCN(C(=O)c7ccc(Cl)c(N8CCC(=O)NC8=O)c7)CC6)C(F)(F)C5)C4)cccc32)nn2c(C(=O)N[C@@H]3C[C@@H]3F)cnc12', 'B (B (90 to >75%))'),
  ('CNc1cc(N2CCc3c(-c4ccc(CN5CCC(N6CCC(N(C)c7ccc(Cl)c(N8CCC(=O)NC8=O)c7)CC6)C(F)(F)C5)cn4)cccc32)nn2c(C(=O)N[C@@H]3C[C@@H]3F)cnc12 (some centres unmarked)', 'C (C (75 to 50%))'),
  ('CNc1cc(N2CCc3c(-c4ccc(CN5CC6(CCN(C(=O)c7cc(N8CCC(=O)NC8=O)c(C)cn7)CC6)C5)cn4)cccc32)nn2c(C(=O)N[C@@H]3C[C@@H]3F)cnc12', 'A (A (>90%))');
